B1: TPR t1 (parent)
chain: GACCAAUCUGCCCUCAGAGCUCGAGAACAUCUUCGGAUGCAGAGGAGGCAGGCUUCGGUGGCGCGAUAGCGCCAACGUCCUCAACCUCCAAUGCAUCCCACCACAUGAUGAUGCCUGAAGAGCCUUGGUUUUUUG

Variants of: B1
assay_text: polymerase ribozyme fitness, log enrichment relative to wild type (log ratio); higher = more active; in vitro selection for triplet polymerase activity
measured_metric: polymerase ribozyme fitness (log ratio)
Reply briefly: the number, and no unit.

mutation_name: A41C A43U C53U U126C
polymerase ribozyme fitness (log ratio): -2.72

mutation_name: C80A G117A
polymerase ribozyme fitness (log ratio): -4.27

mutation_name: C8A A27G C56G U59G G113U
polymerase ribozyme fitness (log ratio): -4.68

mutation_name: G10A C56U U96C
polymerase ribozyme fitness (log ratio): -0.627

mutation_name: G69U U96G
polymerase ribozyme fitness (log ratio): -0.302

mutation_name: A41U U109C C114U G120U
polymerase ribozyme fitness (log ratio): -4.6

QUERY: # polymerase ribozyme fitness (log ratio) lookup, item A2U A121U
RESULT: -0.628

QUERY: I'd like to know its polymerase ribozyme fitness (log ratio). The variant in question is C22G C97A
RESULT: -5.26

QUERY: Suppose we examine the variant C12U C40U A90G ; what polymerase ribozyme fitness (log ratio) value has been reported?
RESULT: 0.0487

QUERY: Suppose we examine the variant A18C C20A G93A G113A C124U U126G ; what polymerase ribozyme fitness (log ratio) value has been reported?
RESULT: -4.14

QUERY: Which polymerase ribozyme fitness (log ratio) is listed for G44C C56U C88U C101U G110U ?
RESULT: -3.38

QUERY: Given G58C A111G , state its recorded polymerase ribozyme fitness (log ratio).
RESULT: 0.509

QUERY: Quick one: polymerase ribozyme fitness (log ratio) for C8U A18U C53U C79G G93C U130G ?
RESULT: -4.48

QUERY: So what's the measured polymerase ribozyme fitness (log ratio) for this one? A6U C40A C56G A84G C104U
RESULT: -2.66

QUERY: // query polymerase ribozyme fitness (log ratio) value for entry U92C U125G
RESULT: -1.76

QUERY: Find the recorded polymerase ribozyme fitness (log ratio) belonging to G77C C86G and report it.
RESULT: -1.47

QUERY: Return reported polymerase ribozyme fitness (log ratio); argument: C13U G52U G110U U133C
RESULT: -1.33

QUERY: Recorded polymerase ribozyme fitness (log ratio) for A16U C62G C123A , please?
RESULT: -3

QUERY: Need polymerase ribozyme fitness (log ratio), item C20A G58U G71U C89G
RESULT: -5.13

QUERY: Given the entry C86U U131G , report its measured polymerase ribozyme fitness (log ratio).
RESULT: -0.498

QUERY: Entry C56U G60A C98U G117C C124U U130A has what polymerase ribozyme fitness (log ratio)?
RESULT: -6.06

QUERY: Could you share which polymerase ribozyme fitness (log ratio) value was measured for A27G C64U ?
RESULT: -2.01

QUERY: Request the reported polymerase ribozyme fitness (log ratio) associated with A29U G63A
RESULT: -2.41

QUERY: Dear colleague, I am looking for the recorded polymerase ribozyme fitness (log ratio) of the following variant: C88U A105G C123U
RESULT: -1.46

Reference source: the RNAGym collection of RNA variant scans (doi:10.1073/pnas.2313332121)
